Listed here are compounds together with their documented growth inhibition.
experiment: NCI Yeast Anticancer Drug Screen. Data for the mec2-1 strain (AID 157); settings: S. cerevisiae mec2-1 strain, at 50.0 µM, hits give high values
About 79,000 compounds went through this panel and 15% of them were active in at least one assay; those are over-represented in the sample as a whole.
Write down the numeric answer in % and omit the unit.

COMPOUND: C=CCOCOC(C)C(=O)OCC (stereo not given)
growth inhibition, %: 6.6

The measured growth inhibition associated with O=CNn1cn[nH]c1=S reads -2.65

The measured growth inhibition associated with O=S1(=O)Cc2ccccc2O1 reads 5.2

* * *

experiment: NCI Yeast Anticancer Drug Screen. Data for the bub3 strain (AID 167); conditions: S. cerevisiae bub3 mutant strain, at 50.0 µM
Compounds without any hit were thinned out: in the full panel of roughly 79,000, 15% have a hit. Calls of active or inactive are those of the source. Cut-off read from the data, not from the text of the source: active = growth inhibition above about 70%; inactive = the rest.
Please state which outcome applies, choosing from active, inactive

The examples below pair each entry with its known result.
COMPOUND: CC(=O)Nc1ccc(S(=O)(=O)Oc2noc3ccccc23)cc1
CATEGORY LABEL: inactive
//
COMPOUND: CCN(CC)c1ccc2cc(-c3nc4ccccc4s3)c(=O)oc2c1
CATEGORY LABEL: inactive
//
COMPOUND: O=C(O)CCCCCNC(=O)c1ccccc1
CATEGORY LABEL: inactive
//
COMPOUND: O=C1c2c(ccc3c2CCC3)CC12Cc1cc3c(cc1C2)CCC3
CATEGORY LABEL: inactive
//
COMPOUND: COC1/C=C/OC2(C)Oc3c(C)c(OC(C)=O)c4c(c3C2=O)C(=O)C=C(NC(=O)/C(C)=C\C=C\C(C)C(OC(C)=O)C(C)C(O)C(C)C(OC(C)=O)C1C)C4=O (configuration not stated)
CATEGORY LABEL: inactive
//
COMPOUND: NC(=O)C(CCCCNc1c(C(=O)O)cc([N+](=O)[O-])cc1[N+](=O)[O-])NC(=O)c1ccccc1 (configuration not stated)
CATEGORY LABEL: inactive

Query string: Assay outcome for COc1ccc(C2S/C(=C\c3cccc([N+](=O)[O-])c3)C(=O)N2NC(=O)Cc2ccccc2)cc1 (configuration not stated) : what was it?
Result string: inactive

Query string: Assay outcome for CC(=O)Oc1cc(N(C)C)ccc1SC(Cl)(Cl)Cl : what was it?
Result string: inactive

* * *

Listed here are compounds together with their documented growth inhibition.
assay: NCI Yeast Anticancer Drug Screen. Data for the sgs1 mgt1 strain (AID 161);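 note: 0% = growth of cultures given vehicle only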; details: S. cerevisiae sgs1 mgt1 strain, at 50.0 µM, hits give high values
Compounds without any hit were thinned out: in the full panel of roughly 79,000, 15% have a hit. Where a SMILES comes first, the peptide text is derived from it. The star is where a group is joined. Trt = c1ccc(C(c2ccccc2)(c2ccccc2)*)cc1; Benzhydryl = c1ccc(C(c2ccccc2)*)cc1; Cbz = O=C(OCc1ccccc1)*
Write down the numeric answer in % and omit the unit.

Example compounds with recorded growth inhibition:
COMPOUND: O=C1c2ccccc2C(=O)c2c(Cl)ccc(O)c21
growth inhibition, %: 3.8
--
COMPOUND: C=C1CC[N+]2(CCCC)CCCC12 (configuration not stated)
growth inhibition, %: 16.2
--
COMPOUND: Cn1c(Cl)cc2nc3ccccc3n2c1=O
growth inhibition, %: -1
--
COMPOUND: Nc1ccc([N+](=O)[O-])cc1C(=O)O
growth inhibition, %: -6.8
--
COMPOUND: CCC(=O)OC1CCC2(C)C(=CCC3C2CCC2(C)C(C(C)CCCC(C)C)CCC32)C1 (configuration not stated)
growth inhibition, %: -20.6

The measured growth inhibition associated with Cc1ccc2c3c1CCCN3CCC2 reads 15.6

The measured growth inhibition associated with Cc1[nH]c(=O)[nH]c(=O)c1/C=C/C(=O)NC(CO)CSC(C)C (configuration not stated) reads -7.75

The measured growth inhibition associated with CN=C(N)SCCSC(N)=NC reads 0.25

The measured growth inhibition associated with CSc1cc(C)c(OC(=O)Nc2cc(C)ccc2C)c(C)c1 reads 3

The measured growth inhibition associated with CC(C)OC1CC1 reads -10.5

The measured growth inhibition associated with COC(=O)C(Cc1ccccc1)NC(=O)C(Cc1ccccc1)NC(=O)CNC(=O)C(CSC(c1ccccc1)c1ccccc1)NC(=O)C(CSC(c1ccccc1)(c1ccccc1)c1ccccc1)NC(=O)OCc1ccccc1 (configuration not stated) (Cbz-C(Trt)C(Benzhydryl)GFF-OMe; configuration not given here) reads 19

The measured growth inhibition associated with CCOC(=O)C(CO)NC(=O)C[NH-].CCOC(=O)C(CO)NC(=O)C[NH-].[Cl][Pt+2][Cl] (configuration not stated) reads -17.4

* * *

assay: NCI Yeast Anticancer Drug Screen. Data for the cln2 rad14 strain (AID 165);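 note: 0% = growth equal to vehicle treated cultures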; details: S. cerevisiae cln2 rad14 strain, at 50.0 µM
This is part of a sample that, as a whole, favours compounds with a hit. Of some 79,000 tested, about 15% had one in any assay. Calls of active or inactive are those of the source. Rule as the data show it: active = growth inhibition above about 70%; inactive = the rest.
Please state which outcome applies, choosing from active, inactive

COMPOUND: O=C(O)/C=C/c1ccc(Oc2ccccc2C(=O)O)o1
CATEGORY LABEL: inactive

Query string: Assay outcome for C=CCCCCCCCCO : what was it?
Result string: inactive

Query string: Assay outcome for Nc1cc2c(cc1/C=C1\CCNC1=O)OCO2 : what was it?
Result string: inactive

Query string: Assay outcome for C=CCCCCCCCCC(=O)NCc1nc2ccccc2[nH]1 : what was it?
Result string: inactive

Query string: Assay outcome for NC(N)=NCc1ccc2c(c1)OCO2 : what was it?
Result string: inactive

Query string: Assay outcome for COc1ccc2ccccc2c1C1/C(=N/O)CCc2ccccc21 (stereo unspecified) : what was it?
Result string: inactive

* * *

test: NCI Yeast Anticancer Drug Screen. Data for the sgs1 mgt1 strain (AID 161);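 note: 0% = growth of cultures given vehicle only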; settings: S. cerevisiae sgs1 mgt1 strain, at 50.0 µM, hits give high values
This is part of a sample that, as a whole, favours compounds with a hit. Of some 79,000 tested, about 15% had one in any assay. Activity calls are given as the source filed them. Rule as the data show it: active = growth inhibition above about 70%; inactive = the rest.
Listed here are compounds together with their documented growth inhibition.

Example compounds with recorded growth inhibition:
COMPOUND: Cc1cc(=O)c2cc3ccc4cccc5ccc(c2[nH]1)c3c45
growth inhibition: -10.1% (inactive)
//
COMPOUND: O=C1CSC(c2ccc(Cl)c(Cl)c2)N1c1nncs1 (stereo not given)
growth inhibition: 17.1% (inactive)
//
COMPOUND: COc1ccc(CC#N)c(OCc2ccccc2)c1
growth inhibition: -10.2% (inactive)
//
COMPOUND: Cc1ccc(C2=C(c3ccc(C)cc3)CS(=O)(=O)C2)cc1
growth inhibition: -0.4% (inactive)
//
COMPOUND: CCC(=O)C(=O)C1CCCCC1=O (stereo not given)
growth inhibition: -2.5% (inactive)

The measured growth inhibition associated with COc1cc(N=Nc2ccc(N)nc2N)c(OC)cc1N=Nc1ccc([N+](=O)[O-])cc1 reads 1.8% (inactive)

The measured growth inhibition associated with ClC1CCCCC1 reads -0.35% (inactive)

* * *

experiment: NCI Yeast Anticancer Drug Screen. Data for the sgs1 mgt1 strain (AID 161);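 note: 0% = growth of cultures given vehicle only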; conditions: S. cerevisiae sgs1 mgt1 strain, at 50.0 µM
Compounds without any hit were thinned out: in the full panel of roughly 79,000, 15% have a hit. The source made the active and inactive calls. Cut-off read from the data, not from the text of the source: active = growth inhibition above about 70%; inactive = the rest.
Please state which outcome applies, choosing from active, inactive

The examples below pair each entry with its known result.
COMPOUND: CC1=CC(c2ccccc2)(c2ccccc2)c2ccccc21
CATEGORY LABEL: inactive
--
COMPOUND: Nc1ccc2c(c1)Cc1c-2cc(Cl)c(N)c1Cl
CATEGORY LABEL: inactive
--
COMPOUND: COc1ccc(C2CCCCCC2OS(=O)(=O)c2ccc(C)cc2)c(OC)c1OC (stereo unspecified)
CATEGORY LABEL: inactive
--
COMPOUND: CC(=O)Nc1cc(OC(C)=O)nc2c1CCC2
CATEGORY LABEL: inactive
--
COMPOUND: COC(=O)C1C(c2ccccc2)C1(C#N)C#N (stereo unspecified)
CATEGORY LABEL: inactive

Query string: Assay outcome for Cc1ccc(Nc2c3ccccc3nc3ccccc23)cc1 : what was it?
Result string: active

Query string: Assay outcome for CCOC(=O)c1ccc(NC(=S)NCc2cccnc2)cc1 : what was it?
Result string: inactive

Query string: Assay outcome for COc1ccc(CCN2C(=O)c3cccc4c(Br)ccc(c34)C2=O)cc1 : what was it?
Result string: inactive

Query string: Assay outcome for CC(C)CSc1nc(N)nc2c1ncn2CC(C)C : what was it?
Result string: inactive

Query string: Assay outcome for C[C@]12C=CC(=O)C=C1[C@@H](F)C[C@H]1[C@@H]3CC[C@](O)(C(=O)CO)[C@@]3(C)C[C@H](O)[C@@]12F : what was it?
Result string: inactive

Query string: Assay outcome for O=C(O)CC1SC2(C(=O)N(Cc3ccccc3)c3ccccc32)N(c2ccccc2)C1=O (stereo unspecified) : what was it?
Result string: inactive
